Target or test system: recombinant human Nav1.7 (Homo sapiens (Human))
Sequence (Q15858 whole entry): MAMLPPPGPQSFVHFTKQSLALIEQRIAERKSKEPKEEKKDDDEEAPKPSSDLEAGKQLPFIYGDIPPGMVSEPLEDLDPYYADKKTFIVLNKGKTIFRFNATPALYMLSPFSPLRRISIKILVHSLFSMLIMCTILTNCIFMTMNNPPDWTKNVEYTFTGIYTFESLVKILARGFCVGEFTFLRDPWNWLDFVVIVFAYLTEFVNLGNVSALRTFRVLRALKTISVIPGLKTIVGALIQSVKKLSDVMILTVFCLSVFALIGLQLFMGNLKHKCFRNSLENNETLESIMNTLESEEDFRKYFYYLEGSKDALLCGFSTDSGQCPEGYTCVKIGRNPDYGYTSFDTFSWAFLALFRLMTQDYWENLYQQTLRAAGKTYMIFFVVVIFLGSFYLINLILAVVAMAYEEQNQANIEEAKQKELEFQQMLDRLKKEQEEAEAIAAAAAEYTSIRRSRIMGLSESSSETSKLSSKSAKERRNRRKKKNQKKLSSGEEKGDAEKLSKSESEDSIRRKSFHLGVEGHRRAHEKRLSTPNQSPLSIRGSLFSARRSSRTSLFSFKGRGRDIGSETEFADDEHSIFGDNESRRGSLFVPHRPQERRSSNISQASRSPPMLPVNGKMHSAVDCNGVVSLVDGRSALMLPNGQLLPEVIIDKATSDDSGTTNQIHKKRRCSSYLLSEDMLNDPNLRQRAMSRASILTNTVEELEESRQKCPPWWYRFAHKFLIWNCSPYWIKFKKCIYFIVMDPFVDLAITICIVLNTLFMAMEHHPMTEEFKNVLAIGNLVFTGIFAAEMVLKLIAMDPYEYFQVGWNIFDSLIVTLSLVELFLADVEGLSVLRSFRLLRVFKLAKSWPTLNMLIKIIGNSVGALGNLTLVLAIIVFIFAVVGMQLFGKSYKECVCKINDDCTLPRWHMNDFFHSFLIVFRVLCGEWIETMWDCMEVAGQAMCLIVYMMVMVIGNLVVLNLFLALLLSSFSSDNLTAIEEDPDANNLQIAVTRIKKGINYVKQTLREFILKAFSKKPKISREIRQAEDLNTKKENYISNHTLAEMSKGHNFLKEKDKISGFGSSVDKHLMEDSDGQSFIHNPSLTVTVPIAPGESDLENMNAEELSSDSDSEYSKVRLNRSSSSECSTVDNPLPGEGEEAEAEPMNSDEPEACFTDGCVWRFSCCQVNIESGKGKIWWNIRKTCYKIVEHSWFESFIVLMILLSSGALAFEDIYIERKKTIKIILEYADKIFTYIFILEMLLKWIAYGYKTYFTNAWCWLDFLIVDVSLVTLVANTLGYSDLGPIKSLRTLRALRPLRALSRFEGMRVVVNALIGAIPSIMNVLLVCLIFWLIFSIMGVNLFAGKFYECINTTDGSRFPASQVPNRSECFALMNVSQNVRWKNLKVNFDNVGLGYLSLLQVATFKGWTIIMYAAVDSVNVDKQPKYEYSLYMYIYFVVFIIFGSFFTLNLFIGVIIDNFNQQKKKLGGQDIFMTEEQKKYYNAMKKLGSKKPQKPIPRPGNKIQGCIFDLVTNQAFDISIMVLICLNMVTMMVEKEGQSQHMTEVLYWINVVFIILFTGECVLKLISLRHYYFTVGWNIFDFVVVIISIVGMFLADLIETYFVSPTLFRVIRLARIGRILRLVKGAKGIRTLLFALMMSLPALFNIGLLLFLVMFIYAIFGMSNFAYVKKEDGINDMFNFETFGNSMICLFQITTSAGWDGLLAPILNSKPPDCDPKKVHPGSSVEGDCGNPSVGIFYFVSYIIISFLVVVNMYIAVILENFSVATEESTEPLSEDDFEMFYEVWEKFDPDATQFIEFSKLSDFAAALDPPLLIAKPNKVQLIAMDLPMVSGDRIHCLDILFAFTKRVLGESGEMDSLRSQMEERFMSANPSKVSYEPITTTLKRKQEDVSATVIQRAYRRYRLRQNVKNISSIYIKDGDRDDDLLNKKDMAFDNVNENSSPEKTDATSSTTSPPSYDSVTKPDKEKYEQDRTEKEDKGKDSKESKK
Assay method text: FRET-based membrane potential assay, recombinant human sodium channel Nav1.7
Assay type: cell-based
Applied conditions: read-out: FRET-Membrane Potential Nav1.7 IC50
Description: FRET-Based Membrane Potential Assays. Recombinant, Human Sodium Channel, Nav1.7. On the day of the assay, medium was removed by aspiration, and cells were washed with assay buffer [HBSS (Invitrogen, Carlsbad, Calif.) containing 20 mM HEPES (Invitrogen, Carlsbad, Calif.)]. […] Cells were incubated for 40 minutes at room temperature in the dark. […] Fluorescence readings were made using a FLIPR®^TETRA (Molecular Devices, Sunnyvale Calif.) equipped with voltage-sensor probe optics. […]
Quantity: IC50 (µM)

INSERT INTO results (compound, cmp, readout_number) VALUES
  ('O=C(NCC1(O)COC1)c1ccc2cc(Oc3ccc(C(F)(F)F)cn3)ccc2n1 [Example 412]', '=', 0.513),
  ('O=C(NCCN1CCCC1=O)c1ccc2cc(Oc3ccc(C(F)(F)F)cn3)ccc2n1 [Example 337]', '=', 1.66),
  ('CNC(=O)[C@@H]1CCCN1C(=O)c1ccc2cc(Oc3ccc(C(F)F)cn3)ccc2n1 [Example 455]', '>', 20),
  ('O=C(NC1CC2CCC(C1)N2)c1ccc2cc(Oc3ccc(C(F)(F)F)cn3)ccc2n1 (centres unmarked) [Example 267]', '=', 10.2),
  ('N#Cc1ccc(Oc2ccc3nc(C(=O)N[C@H]4CCOC4)ccc3c2)cc1 [Example 118]', '=', 2.27),
  ('O=C(c1ccc2cc(Oc3ccc(C(F)(F)F)cn3)ccc2n1)N1CCc2[nH]cnc2C1 [Example 360]', '=', 1.09),
  ('O=C(NCCO)c1ccc2cc(Oc3ccc(C(F)(F)F)cn3)ccc2n1 [Example 326]', '=', 3.15),
  ('O=C(c1ccc2cc(Oc3ccc(C(F)(F)F)cn3)ccc2n1)N1CC(Oc2ccccc2)C1 [Example 201]', '>', 20);

----------
Target or test system: recombinant human Nav1.7 (Homo sapiens (Human))
Assay method text: FRET-based membrane potential assay, recombinant human sodium channel Nav1.7
Assay type: cell-based
Applied conditions: HEK293 cells stably expressing recombinant human Nav1.7; veratridine + scorpion venom depolarization; read-out: FRET-Membrane Potential Nav1.7 IC50
Protocol: FRET-Based Membrane Potential Assays. Recombinant, Human Sodium Channel, Nav1.7. On the day of the assay, medium was removed by aspiration, and cells were washed with assay buffer [HBSS (Invitrogen, Carlsbad, Calif.) containing 20 mM HEPES (Invitrogen, Carlsbad, Calif.)]. […] Cells were incubated for 40 minutes at room temperature in the dark. […] Fluorescence readings were made using a FLIPR®^TETRA (Molecular Devices, Sunnyvale Calif.) equipped with voltage-sensor probe optics. […]
The entries below are paired with their reported IC50.
Quantity: IC50 (nM)

INSERT INTO measurements (compound, target_or_test_system, quantity, cmp, readout_number) VALUES
  ('CS(=O)(=O)C1CCN(C(=O)c2ccc3cc(Oc4ccc(C(F)(F)F)cn4)ccc3n2)CC1', 'recombinant human Nav1.7 (Homo sapiens (Human))', 'IC50', '=', 13800),
  ('N#CCCCNC(=O)c1ccc2cc(Oc3ccc(C(F)(F)F)cn3)ccc2n1', 'recombinant human Nav1.7 (Homo sapiens (Human))', 'IC50', '=', 1130),
  ('Cn1cc(S(=O)(=O)N2CCN(C(=O)c3ccc4cc(Oc5ccc(C(F)(F)F)cn5)ccc4n3)CC2)cn1', 'recombinant human Nav1.7 (Homo sapiens (Human))', 'IC50', '=', 2480),
  ('CNC(=O)[C@@H]1CCCN1C(=O)c1ccc2cc(Oc3ccc(C(F)(F)F)cn3)ccc2n1', 'recombinant human Nav1.7 (Homo sapiens (Human))', 'IC50', '>', 20000),
  ('O=C(c1ccc2cc(Oc3ccc(C(F)(F)F)cn3)ccc2n1)N1C[C@H]2CNC[C@H]2C1', 'recombinant human Nav1.7 (Homo sapiens (Human))', 'IC50', '=', 12700),
  ('O=C(c1ccc2cc(Oc3ccc(C(F)(F)F)cn3)ccc2n1)N1CCN(Cc2ccccn2)CC1', 'recombinant human Nav1.7 (Homo sapiens (Human))', 'IC50', '=', 3070),
  ('CN1CCN(C(=O)c2ccc3cc(Oc4ccc(C(F)(F)F)cn4)ccc3n2)CC1', 'recombinant human Nav1.7 (Homo sapiens (Human))', 'IC50', '=', 1930),
  ('CS(=O)(=O)NC(=O)c1ccc2cc(Oc3ccc(C#N)cc3)ccc2n1', 'recombinant human Nav1.7 (Homo sapiens (Human))', 'IC50', '=', 11200),
  ('O=C(c1ccc2cc(Oc3ccc(C(F)(F)F)cn3)ccc2n1)N1C[C@@H](O)[C@@H](O)C1', 'recombinant human Nav1.7 (Homo sapiens (Human))', 'IC50', '=', 2080),
  ('C[C@@H]1N(C(=O)c2ccc3cc(Oc4ccc(C(F)(F)F)cn4)ccc3n2)CC1(C)C', 'recombinant human Nav1.7 (Homo sapiens (Human))', 'IC50', '=', 3170),
  ('O=C(NCC(=O)N1CCC[C@@H]1CO)c1ccc2cc(Oc3ccc(C(F)(F)F)cn3)ccc2n1', 'recombinant human Nav1.7 (Homo sapiens (Human))', 'IC50', '=', 977),
  ('O=C(c1ccc2cc(Oc3ccc(C(F)(F)F)cn3)ccc2n1)N1C[C@@H](F)C[C@@H]1CO', 'recombinant human Nav1.7 (Homo sapiens (Human))', 'IC50', '=', 1690),
  ('O=C(c1ccc2cc(Oc3ccc(C(F)(F)F)cn3)ccc2n1)N1CCCCCC1', 'recombinant human Nav1.7 (Homo sapiens (Human))', 'IC50', '=', 1540),
  ('O=C(N[C@@H]1CCOC1=O)c1ccc2cc(Oc3ccc(C(F)(F)F)cn3)ccc2n1', 'recombinant human Nav1.7 (Homo sapiens (Human))', 'IC50', '=', 911),
  ('O=C(c1ccc2cc(Oc3ccc(C(F)(F)F)cn3)ccc2n1)N1CCCCC1', 'recombinant human Nav1.7 (Homo sapiens (Human))', 'IC50', '=', 7990),
  ('O=C(NC[C@H]1CCCN1)c1ccc2cc(Oc3ccc(C(F)(F)F)cn3)ccc2n1', 'recombinant human Nav1.7 (Homo sapiens (Human))', 'IC50', '=', 573),
  ('O=C(NC1CCCS(=O)(=O)C1)c1ccc2cc(Oc3ccc(C(F)(F)F)cn3)ccc2n1 (stereo not drawn)', 'recombinant human Nav1.7 (Homo sapiens (Human))', 'IC50', '=', 3250),
  ('O=C(c1ccc2cc(Oc3ccc(C(F)(F)F)cn3)ccc2n1)N1CCCC(O)CC1 (stereo not drawn)', 'recombinant human Nav1.7 (Homo sapiens (Human))', 'IC50', '=', 8590),
  ('O=C(NCCC(=O)N1CCCCC1)c1ccc2cc(Oc3ccc(C(F)(F)F)nc3)ccc2n1', 'recombinant human Nav1.7 (Homo sapiens (Human))', 'IC50', '=', 945),
  ('O=C(c1ccc2cc(Oc3ccc(C(F)(F)F)cn3)ccc2n1)N1CC(NCC(F)(F)F)C1', 'recombinant human Nav1.7 (Homo sapiens (Human))', 'IC50', '=', 2690),
  ('CC1(NC(=O)c2ccc3cc(Oc4ccc(C(F)(F)F)cn4)ccc3n2)COC1', 'recombinant human Nav1.7 (Homo sapiens (Human))', 'IC50', '=', 4430),
  ('CC(C)(O)c1ccc(Oc2ccc3nc(C(=O)N4CCNCC4)ccc3c2)cc1', 'recombinant human Nav1.7 (Homo sapiens (Human))', 'IC50', '=', 8860),
  ('O=C(c1ccc2cc(Oc3ccc(C(F)(F)F)cn3)ccc2n1)N1CCC12COC2', 'recombinant human Nav1.7 (Homo sapiens (Human))', 'IC50', '=', 4940),
  ('CC[C@@H]1CN(C(=O)c2ccc3cc(Oc4ccc(C(F)(F)F)cn4)ccc3n2)CCN1', 'recombinant human Nav1.7 (Homo sapiens (Human))', 'IC50', '=', 406),
  ('O=C(c1ccc2cc(Oc3ccc(C(F)(F)F)cn3)ccc2n1)N1CCS(=O)(=O)CC1', 'recombinant human Nav1.7 (Homo sapiens (Human))', 'IC50', '=', 2940),
  ('N#Cc1ccc(Oc2ccc3nc(C(=O)N[C@@H]4CCOC4=O)ccc3c2)cc1', 'recombinant human Nav1.7 (Homo sapiens (Human))', 'IC50', '=', 741),
  ('O=C(c1ccc2cc(Oc3ccc(C(F)(F)F)cn3)ccc2n1)N1CC(n2ccnc2)C1', 'recombinant human Nav1.7 (Homo sapiens (Human))', 'IC50', '=', 911),
  ('C[C@H]1CN(C(=O)c2ccc3cc(Oc4ccc(C(F)F)cn4)ccc3n2)CCN1', 'recombinant human Nav1.7 (Homo sapiens (Human))', 'IC50', '=', 3060),
  ('O=C(c1ccc2cc(Oc3ccc(C(F)(F)F)nc3)ccc2n1)N1CCC(N2CCOCC2)CC1', 'recombinant human Nav1.7 (Homo sapiens (Human))', 'IC50', '=', 3090),
  ('CCN(CC)C(=O)CCNC(=O)c1ccc2cc(Oc3ccc(C(F)(F)F)cn3)ccc2n1', 'recombinant human Nav1.7 (Homo sapiens (Human))', 'IC50', '=', 405),
  ('O=C(NCCN1CCOCC1)c1ccc2cc(Oc3ccc(C(F)(F)F)cn3)ccc2n1', 'recombinant human Nav1.7 (Homo sapiens (Human))', 'IC50', '=', 529),
  ('O=C(c1ccc2cc(Oc3ccc(C(F)(F)F)cn3)ccc2n1)N1CCn2cncc2C1', 'recombinant human Nav1.7 (Homo sapiens (Human))', 'IC50', '=', 833),
  ('O=C(NCCC(=O)N1CCCC1)c1ccc2cc(Oc3ccc(C(F)(F)F)nc3)ccc2n1', 'recombinant human Nav1.7 (Homo sapiens (Human))', 'IC50', '=', 2000);
